TARGET ENTITY: Cytochrome P450 2D6 (Homo sapiens, UniProt P10635)
Sequence (P10635 whole entry): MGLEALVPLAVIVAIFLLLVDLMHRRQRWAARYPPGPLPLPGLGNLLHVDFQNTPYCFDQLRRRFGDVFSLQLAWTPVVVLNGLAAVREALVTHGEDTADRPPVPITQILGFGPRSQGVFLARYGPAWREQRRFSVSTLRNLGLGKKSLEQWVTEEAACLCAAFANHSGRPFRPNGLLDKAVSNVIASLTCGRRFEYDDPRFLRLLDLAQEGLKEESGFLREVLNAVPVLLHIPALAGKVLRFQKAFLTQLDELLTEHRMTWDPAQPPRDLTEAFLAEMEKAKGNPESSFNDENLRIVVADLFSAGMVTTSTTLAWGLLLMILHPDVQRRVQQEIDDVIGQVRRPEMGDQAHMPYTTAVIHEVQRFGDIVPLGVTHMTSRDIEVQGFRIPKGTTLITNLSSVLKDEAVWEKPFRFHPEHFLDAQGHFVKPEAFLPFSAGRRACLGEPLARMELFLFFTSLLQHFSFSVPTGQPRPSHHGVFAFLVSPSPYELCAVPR
PROPERTY NAME: IC50

                                  smiles_str      val
 0    Cl.Clc1ncccc1OC[C@@H]1C[C@H]2C[C@H]2N1  > 42 µM
 1    Clc1cncc(OC[C@H]2NC[C@@H]3C[C@@H]32)c1  > 45 µM
 2  Cl.Clc1ccc(OC[C@@H]2CC[C@H]3C[C@H]3N2)cn1    79 µM
 3   Cl.c1cncc(OC[C@@H]2CC[C@H]3C[C@H]3N2)c1  > 45 µM
 4      Clc1ccc(OC[C@H]2C[C@H]3C[C@H]3N2)cn1  32.1 µM
 5  Cl.Clc1ccc(OC[C@H]2C[C@@H]3C[C@@H]3N2)cn1  17.1 µM
 6  Cl.Clc1ccc(OC[C@@H]2C[C@@H]3C[C@@H]3N2)cn1  > 45 µM
 7    Cl.c1cncc(OC[C@@H]2C[C@H]3C[C@H]3N2)c1  26.2 µM
 8  Cl.c1cncc(OC[C@@H]2C[C@@H]3C[C@@H]3N2)c1  30.2 µM
 9      c1cncc(OC[C@H]2NC[C@@H]3C[C@@H]32)c1  > 45 µM
10   Cl.Fc1ccc(OC[C@@H]2C[C@H]3C[C@H]3N2)cn1  > 45 µM
11  Cl.Clc1cncc(OC[C@@H]2C[C@H]3C[C@H]3N2)c1  > 45 µM
12  Cl.Clc1ccc(OC[C@@H]2C[C@H]3C[C@H]3N2)cn1  38.1 µM

---

Recorded pIC50 values (Cytochrome P450 3A4 (Homo sapiens, UniProt P08684)) are given below.
pIC50: −log10 of the molar value.
PROPERTY NAME: pIC50

>>> print(df.to_string())
                                 smiles_str     val
0    Clc1cncc(OC[C@H]2NC[C@@H]3C[C@@H]32)c1  < 4.35
1  Cl.Clc1ccc(OC[C@H]2C[C@@H]3C[C@@H]3N2)cn1  < 4.35
2    Cl.c1cncc(OC[C@@H]2C[C@H]3C[C@H]3N2)c1  < 4.35
3      c1cncc(OC[C@H]2NC[C@@H]3C[C@@H]32)c1    4.68
4   Cl.Fc1ccc(OC[C@@H]2C[C@H]3C[C@H]3N2)cn1  < 4.35
5  Cl.Clc1ccc(OC[C@@H]2CC[C@H]3C[C@H]3N2)cn1  < 4.35
6  Cl.Clc1ccc(OC[C@@H]2C[C@@H]3C[C@@H]3N2)cn1  < 4.35
7  Cl.c1cncc(OC[C@@H]2C[C@@H]3C[C@@H]3N2)c1    4.50
8   Cl.c1cncc(OC[C@@H]2CC[C@H]3C[C@H]3N2)c1  < 4.35
9    Cl.Clc1ncccc1OC[C@@H]1C[C@H]2C[C@H]2N1  < 4.35

---

PROTOCOL TEXT: Clearance in Beagle dog at 1 mg/kg, iv by LC-MS/MS analysis
Format: ADME, organism-based, Canis lupus familiaris
RUN CONDITIONS: in vivo
PROPERTY NAME: clearance (mL/min/kg)

In [3]: df
Out[3]:
                                 smiles_str  val
0  Cl.Clc1ccc(OC[C@@H]2C[C@H]3C[C@H]3N2)cn1   10
